system_under_test: Mu-type opioid receptor (Homo sapiens, UniProt P35372)
test_name: Binding affinity to MOR (unknown origin)
measured_property: Ki (µM)
# output: bare number, implied unit µM

Exercise: Quick one: Ki of `C[C@H]1[C@H]2Cc3ccc(O)cc3[C@@]1(C)CCN2C[C@@H]1C[C@@]1(CN1CCCCC1)c1ccccc1` ?
Solution: 0.045

Exercise: // next record C[C@H]1[C@H]2C(=O)c3ccc(O)cc3[C@@]1(C)CCN2CC1CCCO1 (stereo partly drawn)
Solution: 2.9

Exercise: // next record CCC12CCN(CC3CC3)C(C(=O)c3ccc(O)cc31)C2C (racemic)
Solution: 0.00078

* * *

system_under_test: Delta-type opioid receptor (Homo sapiens, UniProt P41143)
Sequence (P41143 whole entry): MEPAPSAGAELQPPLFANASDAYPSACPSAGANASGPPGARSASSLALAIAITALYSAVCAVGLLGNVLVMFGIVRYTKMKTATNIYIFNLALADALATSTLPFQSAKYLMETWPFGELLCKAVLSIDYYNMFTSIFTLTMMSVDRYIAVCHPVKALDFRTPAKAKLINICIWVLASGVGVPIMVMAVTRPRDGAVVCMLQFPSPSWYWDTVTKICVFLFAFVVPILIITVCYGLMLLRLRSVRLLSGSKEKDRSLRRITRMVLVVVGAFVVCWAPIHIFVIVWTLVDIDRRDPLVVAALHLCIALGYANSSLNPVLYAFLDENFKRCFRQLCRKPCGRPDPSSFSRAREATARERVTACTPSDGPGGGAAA
test_name: Binding affinity to DOR (unknown origin)
measured_property: pKi
Scale explanation: pKi corresponds to minus log10 of a concentration expressed in moles per litre.

Exercise: pKi of CCC12CCN(CC3CC3)C(C(=O)c3ccc(O)cc31)C2C (racemic) on Delta-type opioid receptor (Homo sapiens, UniProt P41143)?
Solution: 8.47

* * *

system_under_test: Mu-type opioid receptor (Macaca mulatta, UniProt Q9MYW9)
Attribute: pKi
Scale explanation: pKi corresponds to minus log10 of a concentration expressed in moles per litre.

// solved cases for pKi follow
C#CCCN1CC[C@]2(C)c3cc(O)ccc3C[C@@H]1[C@@H]2C    8.34
C[C@H]1[C@H]2Cc3ccc(O)cc3[C@@]1(C)CCN2CCC#N    8.01
C[C@H]1[C@H]2Cc3ccc(O)cc3[C@@]1(C)CCN2CCCC#N    7.64
C=CCCN1CC[C@]2(C)c3cc(O)ccc3C[C@@H]1[C@@H]2C    8.68

With those in mind, consider the next molecule.
Exercise: Quick one: pKi of `C=CCN1CC[C@]2(C)c3cc(O)ccc3C[C@@H]1[C@@H]2C` ?
Solution: 9.05

* * *

Attribute: pKi
system_under_test: Kappa-type opioid receptor (Homo sapiens, UniProt P41145)
Sequence (P41145 whole entry): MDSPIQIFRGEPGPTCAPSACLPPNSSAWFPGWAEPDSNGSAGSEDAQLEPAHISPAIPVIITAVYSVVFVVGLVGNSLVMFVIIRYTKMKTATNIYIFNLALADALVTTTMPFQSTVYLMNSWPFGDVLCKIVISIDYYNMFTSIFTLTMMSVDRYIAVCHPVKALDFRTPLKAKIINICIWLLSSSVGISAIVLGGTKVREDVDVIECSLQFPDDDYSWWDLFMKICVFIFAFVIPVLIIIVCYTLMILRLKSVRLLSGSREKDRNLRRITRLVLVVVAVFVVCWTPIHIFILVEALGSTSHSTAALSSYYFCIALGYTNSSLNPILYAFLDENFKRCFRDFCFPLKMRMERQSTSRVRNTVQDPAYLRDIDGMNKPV
test_name: Displacement of [3H]U69,593 from human KOR expressed in HEK293 cell membranes after 1 hr by scintillation counting method
Scale explanation: pKi corresponds to minus log10 of a concentration expressed in moles per litre.

C[C@H]1[C@H]2Cc3ccc(O)cc3[C@@]1(C)CC[N+]2(C)CC1CC1 (some centres not stated)    8.36

With those in mind, consider the next molecule.
Exercise: Quick one: pKi of C=CC[N+]1(C)CC[C@]2(C)c3cc(O)ccc3C[C@@H]1[C@@H]2C (some centres not stated) ?
Solution: 7.99

* * *

system_under_test: G_PROTEIN_RECEP_F1_2 domain-containing protein (Cavia porcellus, UniProt A0A286XTF2)
Sequence (A0A286XTF2 whole entry): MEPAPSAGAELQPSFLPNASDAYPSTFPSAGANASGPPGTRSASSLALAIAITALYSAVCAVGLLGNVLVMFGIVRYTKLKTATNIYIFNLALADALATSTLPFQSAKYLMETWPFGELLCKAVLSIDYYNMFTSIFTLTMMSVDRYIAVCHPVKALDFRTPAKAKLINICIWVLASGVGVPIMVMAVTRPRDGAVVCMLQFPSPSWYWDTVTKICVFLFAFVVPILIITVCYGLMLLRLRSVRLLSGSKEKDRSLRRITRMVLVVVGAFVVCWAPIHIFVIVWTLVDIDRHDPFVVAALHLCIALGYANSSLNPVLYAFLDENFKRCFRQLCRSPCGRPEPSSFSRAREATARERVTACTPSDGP
test_name: Displacement of [3H]Naltrindole from DOR in guinea pig brain membranes after 3 hrs by scintillation counting method
Type: cell membranes, Membrane
measured_property: pKi
Scale explanation: pKi corresponds to minus log10 of a concentration expressed in moles per litre.

// solved cases for pKi follow
COc1ccc(Nc2ccc3c(c2)C2(C)CCN(CC4CC4)C(C3)C2C)cc1 (racemic)    8.08
CCC12CCN(CC3CC3)C(C(=O)c3ccc(O)cc31)C2C (racemic)    8.47
C[C@H]1[C@H]2Cc3ccc(O)cc3[C@@]1(C)CCN2C[C@@H]1CCCO1    8.60
C[C@H]1[C@H]2Cc3ccc(Nc4ccccc4)cc3[C@@]1(C)CCN2CC1CC1    8.28
C[C@H]1[C@H]2Cc3ccc(O)cc3[C@@]1(C)CCN2CC1CC1    9.24
C[C@H]1[C@H]2Cc3ccc(N)cc3[C@@]1(C)CCN2CC1CC1    7.92

Exercise: Quick one: pKi of CC1C2Cc3ccc(O)cc3C1(C)CCN2CC1CC1 (racemic) ?
Solution: 8.96

Exercise: // next record CC1C2Cc3ccc(Nc4cccnc4)cc3C1(C)CCN2CC1CC1 (racemic)
Solution: 7.68

Exercise: // next record CC1C2Cc3ccc(C(N)=O)cc3C1(C)CCN2CC1CC1 (racemic)
Solution: 8.08

* * *

system_under_test: Kappa-type opioid receptor (Macaca mulatta)
Attribute: Ki
# output: bare number, implied unit nM

C=CCN1CC[C@]2(C)c3cc(O)ccc3C[C@@H]1[C@@H]2C    0.3
C#CCCN1CC[C@]2(C)c3cc(O)ccc3C[C@@H]1[C@@H]2C    1.4

Exercise: Quick one: Ki of `C[C@H]1[C@H]2Cc3ccc(O)cc3[C@@]1(C)CCN2CCC#N` ?
Solution: 0.4

Exercise: // next record `C=CCCN1CC[C@]2(C)c3cc(O)ccc3C[C@@H]1[C@@H]2C`
Solution: 1.3

Exercise: // next record `C[C@H]1[C@H]2Cc3ccc(O)cc3[C@@]1(C)CCN2CCCC#N`
Solution: 0.4

* * *

system_under_test: Mu-type opioid receptor (Cavia porcellus, UniProt P97266)
test_name: Displacement of [3H]DAMGO from MOR in guinea pig brain membranes after 60 mins by scintillation counting method
Assay type: cell membranes, Membrane
measured_property: Ki (nM)
# output: bare number, implied unit nM

CC1C2Cc3ccc(Nc4cccnc4)cc3C1(C)CCN2CC1CC1 (racemic)    0.64

With those in mind, consider the next compound.
Exercise: Quick one: Ki of COc1ccc(Nc2ccc3c(c2)C2(C)CCN(CC4CC4)C(C3)C2C)cc1 (racemic) ?
Solution: 0.47

* * *

system_under_test: UniProt P97266
test_name: Displacement of [3H]DAMGO from MOR in guinea pig brain membranes
Format: cell membranes, Membrane
measured_property: pKi
Scale explanation: pKi corresponds to minus log10 of a concentration expressed in moles per litre.

// solved cases for pKi follow
CCC12CCN(CC3CC3)C(C(=O)c3ccc(NC=O)cc31)C2C (racemic)    8.21
C[C@H]1[C@H]2Cc3ccc(NC=O)cc3[C@]1(C)CCN2CC1CC1    8.96

With those in mind, consider the next molecule.
Exercise: Quick one: pKi of CC1C2Cc3ccc(NC=O)cc3C1(C)CCN2CC1CC1 (racemic) ?
Solution: 8.72

* * *

Attribute: log10 of Ki
system_under_test: Kappa-type opioid receptor (Homo sapiens, UniProt P41145)
test_name: Binding affinity to KOR (unknown origin)
A value of 2 here means Ki of 100 in nM, since values are log10.

C[C@H]1[C@H]2Cc3ccc(O)cc3[C@@]1(C)CCN2C[C@@H]1C[C@@]1(C(=O)NCc1ccccc1)c1ccccc1    1.54

Exercise: Quick one: log10 of Ki of `C[C@H]1[C@H]2Cc3ccc(O)cc3[C@@]1(C)CCN2C[C@@H]1C[C@@]1(CN1CCCCC1)c1ccccc1` ?
Solution: 2.25

Exercise: // next record C[C@H]1[C@H]2C(=O)c3ccc(O)cc3[C@@]1(C)CCN2CC1CCCO1 (stereo not given in full)
Solution: 2.86

Exercise: // next record `CCCCC(=N)NCCCCCNC(=O)[C@H](CC(C)C)NC(=O)CNC(=O)[C@@]1(c2ccccc2)C[C@H]1CN1CC[C@]2(C)c3cc(O)ccc3C[C@@H]1[C@@H]2C`
Solution: 0.83

Exercise: // next record `CCCCC(=N)NCCCCCCNC(=O)[C@H](CC(C)C)NC(=O)CNC(=O)[C@@]1(c2ccccc2)C[C@H]1CN1CC[C@]2(C)c3cc(O)ccc3C[C@@H]1[C@@H]2C`
Solution: 0.72

* * *

Attribute: ED50
Tested on: Mus musculus
test_name: Antinociceptive activity in sc dosed ICR mouse after 20 mins by tail flick test
Type: functional
# output: bare number, implied unit mg/kg

// solved cases for ED50 follow
C[C@H]1[C@H]2Cc3ccc(O)cc3[C@@]1(C)CCN2CCCC#N    0.4
C#CCCN1CC[C@]2(C)c3cc(O)ccc3C[C@@H]1[C@@H]2C    0.05
C=CCCN1CC[C@]2(C)c3cc(O)ccc3C[C@@H]1[C@@H]2C    0.05

With those in mind, consider the next compound.
Exercise: Quick one: ED50 of `C[C@H]1[C@H]2Cc3ccc(O)cc3[C@@]1(C)CCN2CCC#N` ?
Solution: 0.3

* * *

system_under_test: G_PROTEIN_RECEP_F1_2 domain-containing protein (Cavia porcellus)
test_name: Displacement of [3H]Naltrindole from DOR in guinea pig brain membranes
Type: cell membranes, Membrane
measured_property: Ki (nM)
# output: bare number, implied unit nM

Exercise: Quick one: Ki of `C[C@H]1[C@H]2Cc3ccc(NC=O)cc3[C@]1(C)CCN2CC1CC1` ?
Solution: 9.8

* * *

Attribute: Ki
system_under_test: Kappa-type opioid receptor (Cavia porcellus)
Sequence (P41144 whole entry): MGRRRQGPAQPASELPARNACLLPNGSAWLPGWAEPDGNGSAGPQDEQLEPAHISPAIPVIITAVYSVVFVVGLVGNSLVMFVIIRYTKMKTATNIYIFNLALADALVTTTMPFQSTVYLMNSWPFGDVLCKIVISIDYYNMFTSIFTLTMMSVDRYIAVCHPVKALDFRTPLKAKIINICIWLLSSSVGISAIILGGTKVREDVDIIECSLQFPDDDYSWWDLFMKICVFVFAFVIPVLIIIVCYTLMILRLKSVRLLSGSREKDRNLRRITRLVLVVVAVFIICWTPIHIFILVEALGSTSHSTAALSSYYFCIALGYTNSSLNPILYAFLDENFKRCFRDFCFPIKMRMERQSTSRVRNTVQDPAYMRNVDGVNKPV
test_name: Displacement of [3H]U69,593 from KOR in guinea pig brain membranes after 60 mins by scintillation counting method
Type: cell membranes, Membrane
# include the unit after the value

// solved cases for Ki follow
C[C@H]1[C@H]2Cc3ccc(O)cc3[C@@]1(C)CCN2CC1CC1    0.052 nM
CC1C2Cc3ccc(O)cc3C1(C)CCN2CC1CC1 (racemic)    0.18 nM
CC1C2Cc3ccc(Nc4cccnc4)cc3C1(C)CCN2CC1CC1 (racemic)    0.5 nM

With those in mind, consider the next molecule.
Exercise: Ki of COc1ccc(Nc2ccc3c(c2)C2(C)CCN(CC4CC4)C(C3)C2C)cc1 (racemic) on Kappa-type opioid receptor (Cavia porcellus)?
Solution: 0.29 nM
